B1: Caulobacter ParB omega fusion; a variant is named by its letters at X, in order, B8GW30 (parent)
chain: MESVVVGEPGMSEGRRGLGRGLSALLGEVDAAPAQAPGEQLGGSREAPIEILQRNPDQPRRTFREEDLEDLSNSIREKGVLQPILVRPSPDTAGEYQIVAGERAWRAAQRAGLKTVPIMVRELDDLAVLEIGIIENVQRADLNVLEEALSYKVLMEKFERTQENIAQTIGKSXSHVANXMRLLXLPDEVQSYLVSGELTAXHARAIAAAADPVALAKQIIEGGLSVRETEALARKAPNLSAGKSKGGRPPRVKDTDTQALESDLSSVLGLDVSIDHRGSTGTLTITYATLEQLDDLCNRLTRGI

variants of: B1; assay: one-hybrid fitness for binding parS DNA (scaled: cognate 1, non-cognate 0); higher = stronger binding; conditions: with parS DNA site
Whole data set: some 81,000 sequences, median “one-hybrid fitness for binding parS DNA” near -0.17, cut for the highest 2% near 0.51. What follows is part of a selection rich in the highest values, with near analogues and random picks from the rest.
Recorded one-hybrid fitness for binding parS DNA for the following variants

Reference set (4 entries):
INSERT INTO measurements (mutation_list, property_name, result) VALUES
  ('RLAQ', 'one-hybrid fitness for binding parS DNA', '≤ 0.2'),
  ('RLMD', 'one-hybrid fitness for binding parS DNA', '≤ 0.2'),
  ('GWDS', 'one-hybrid fitness for binding parS DNA', '≤ 0.2'),
  ('RLFR', 'one-hybrid fitness for binding parS DNA', '≤ 0.2');

Notebook: LSAC , one-hybrid fitness for binding parS DNA read as ≤ 0.2

Please fill in: one-hybrid fitness for binding parS DNA reported for QRCN = ≤ 0.2

The reported one-hybrid fitness for binding parS DNA of the variant RCMS was 1.01

The measurements presented in this section are drawn from a collection of fitness landscapes (doi:10.1016/j.celrep.2020.107928).
